Listed next: entries and their corresponding TGI.
# Tested on: NCI-H226 lung
# assay summary: NCI tumour cell line growth inhibition, 48 h
The answer is to be given in µM; state only the numeric part.

Answered examples (3):
CN(Cc1ccccc1)c1ncnc2ccc(Br)cc12 : 39.1
Cc1c2ccccc2c(CSC(=N)N)c2ccccc12 : 0.679
CCN(CC)c1ccc(CNc2cc(C)nc3ccc(OC)cc23)cc1 : 14.4

Considering c1cc2c(cc1NC1=NCCO1)CCCC2 , its TGI with NCI-H226 lung was recorded as 11.4

* * *

Listed next: entries and their corresponding TGI.
# Tested on: OVCAR-5 ovarian
# assay summary: NCI tumour cell line growth inhibition, 48 h

Answered examples (6):
CC(=O)O[C@H]1CC[C@@]2(C)C(=CC[C@@H]3C2CC[C@]2(C)C(=O)NC(=O)CC32)C1 (stereo not given in full) : > 100 µM
COC(=O)CCC(=O)Nc1cccc(C(F)(F)F)c1 : > 100 µM
Cc1ccc(C(=O)Nc2ccc(CN3CCN(C)CC3)c(C(F)(F)F)c2)cc1C#Cc1cnc(N)c2ccc(C#N)cc12 : 16.4 µM
CC(C)C(C)C(O)C(O)C(C)C1CCC2C3COC(=O)C4CC(O)C(O)CC4(C)C3CCC12C (stereo not given) : > 100 µM
N=C(N)c1ccc(CS(=O)(=O)F)cc1 : > 100 µM
COc1ccc2c(c1)C(=O)c1c-2n(CCCCl)c(=O)c2cc([N+](=O)[O-])ccc12 : > 26.4 µM

TGI reported for this molecule O=[N+]([O-])c1ccc(CSc2c3ccccc3nc3ccccc23)cc1 : 32.5 µM

TGI reported for this molecule c1ccc(C2(c3ccccc3)S/C(=C3/SC(c4ccccc4)(c4ccccc4)c4ccccc43)c3ccccc32)cc1 : > 100 µM

TGI reported for this molecule O=C(O)\C=C/C=C/C=C/C=C/C(=O)O : > 100 µM

TGI reported for this molecule CN1C(=O)C(C)(C)NS1(=O)=O : > 100 µM
